- targetOrTestSystem: Muscarinic acetylcholine receptor M4 (Homo sapiens)
- assayMethodText: human M4 muscarinic receptor positive allosteric modulators, primary screen, CHO-K1 cells, Fluo-8 calcium fluorescence (AID 624126)
- experimentalContext: CHO-K1 hM4/Gqi5, Fluo-8 calcium fluorescence, ACh EC20; at 3 µM; hits give high values; 0% = ACh EC20, 100% = maximal ACh
The whole screen tested about 360,000 compounds, of which about 1,400 (0.39%) were called active. Only a selection was taken, and actives are over-represented in it overall.
Measured activation by item
reportedMetric: activation (%)

In [3]: df
Out[3]:
                                    compound  observedmeasurement
 0  O=C(NCCOc1ccccc1)N1[C@H]2CC[C@@H]1C=C(c1ccc(F)cc1OCc1ccccc1)C2                -2.49
 1  CC1(C(=O)NCc2ccc3c(c2)OCO3)CCN1C(=O)Cc1cccs1 (stereo unspecified)                 3.27
 2  Cc1cccc(-c2c(NC(=O)c3ccco3)oc3ccc(Cl)cc3c2=O)c1                 7.81
 3  Cc1noc(NS(=O)(=O)c2ccc(NC(=O)c3oc4ccc(F)cc4c3C)cc2)c1C                -0.81
 4  O=C(Nc1ccc2c(c1)OCCO2)C(C1CC1)N1CCC(Cc2ccccc2)CC1 (stereo unspecified)                -15.2
 5  COc1ccccc1N1CCN(Cc2cc(OC)c3c(c2)OCO3)CC1                -6.02
 6  CNCC(O)CN1CCN(c2ccccc2OC)CC1 (stereo unspecified)                 19.7
 7        CCc1ccccc1OCC(=O)Nc1ccc2c(c1)OCCO2                -2.66
 8   COc1ccccc1N1CCN(Cc2ccc(OC)c3ccccc23)CC1                -3.43
 9  CCN(C(=O)COC(=O)c1ccc(COc2ccc3c(C)cc(=O)oc3c2)cc1)C1CCS(=O)(=O)C1 (stereo unspecified)                -5.76
10  COc1ccc(C(=O)Nc2ccc(S(=O)(=O)Nc3onc(C)c3C)cc2)cc1OC                 31.2
11  Cn1c(NC(=O)c2ccco2)c(-c2ccccc2Cl)c(=O)c2ccccc21                   31
12  CCOC(=O)c1sc(/N=C/Nc2nc(C)c(C(=O)OCC)s2)nc1C                   39
13  CC(C)(C)N1CC(c2nc3ccccc3n2Cc2ccc(F)cc2)CC1=O (stereo unspecified)                -1.38
14  CCc1cccc(NC(=O)COC(=O)c2cc(=O)c3ccccc3o2)c1                 10.9
15  Cc1nc(CN2CCN(C(=O)CCc3nnc(Cc4c[nH]c5ccccc45)o3)CC2)cs1                -5.85
16  Cc1ccc(C)c(NC(=O)NNC(=O)c2ccc3ccccc3c2O)c1                 12.9
17  O=C1NC[C@@H](c2ccccc2)OC(=O)[C@H](Cc2ccc(F)cc2)CC/C=C/C[C@H]1CC(=O)N(CCO)Cc1ccccc1                -11.5
18  CC1=NN(C(=O)CCc2ccccc2O)C(O)(C(F)(F)F)C1 (stereo unspecified)                 5.29
19  O=[N+]([O-])c1ccc2[nH]c3c(c2c1)CCCC3O (stereo unspecified)                  6.6
20           COc1ccc(/C=C/C(=O)N2CCCC2)cc1OC                 31.3
